Taken from paper PMC5196488.

Sequence of the target: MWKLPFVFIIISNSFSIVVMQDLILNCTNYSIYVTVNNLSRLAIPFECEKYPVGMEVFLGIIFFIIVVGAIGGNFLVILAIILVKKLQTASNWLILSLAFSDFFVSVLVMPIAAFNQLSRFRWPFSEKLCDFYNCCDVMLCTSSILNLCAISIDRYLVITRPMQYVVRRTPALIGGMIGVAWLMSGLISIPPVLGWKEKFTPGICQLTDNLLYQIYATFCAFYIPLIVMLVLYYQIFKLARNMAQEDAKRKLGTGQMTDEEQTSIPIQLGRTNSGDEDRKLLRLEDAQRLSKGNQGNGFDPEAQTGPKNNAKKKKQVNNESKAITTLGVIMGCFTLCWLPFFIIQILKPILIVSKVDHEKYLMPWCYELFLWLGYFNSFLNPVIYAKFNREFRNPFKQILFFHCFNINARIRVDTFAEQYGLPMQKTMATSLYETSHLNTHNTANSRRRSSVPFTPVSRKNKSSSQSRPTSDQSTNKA
Parameter: IC50 (nM)
Give bare numbers, in nM.

Inquiry: Entry CC(C)C[C@H]1C(=O)N2CCC[C@H]2[C@]2(O)O[C@](NC(=O)[C@@H]3C=C4c5cccc6[nH]c(Br)c(c56)C[C@H]4N(C)C3)(C(C)C)C(=O)N12 has what IC50?
Reply text: 1800
